Source of measurements: patent US7629318B2

test_name: Stability of compounds in human blood plasma
Assay type: in vitro ADME
Numbered stars: 1 amine (or outer) side, 2 acyl side, 3 side chain; on linkers, the order of the positions; unused ones are H or OH. Square brackets hold non-standard residues; d marks the D form. Peptide text beside a SMILES is read from it. * marks the point of attachment. ξ: configuration not given here. Gly(1-amidinopiperidin-4-yl) = N=C(N)N1CCC([C@H](N)C(=O)O)CC1; X1 = CC(C)c1oc([C@H](CO)N[*:1])nc1C(=O)[*:2]; Pro(3R-Ph) = O=C(O)[C@H]1NCC[C@@H]1c1ccccc1; Tic = O=C(O)[C@@H]1Cc2ccccc2CN1; Cha = N[C@@H](CC1CCCCC1)C(=O)O; ξDisc = O=C(O)C1NCc2ccccc21; Nle = CCCC[C@H](N)C(=O)O; X2 = OCCOCCN(Cc1ccccc1)*
Reported Stability (Arbitrary units) Human 6 h values for a set of compounds
measured_parameter: Stability (Arbitrary units) Human 6 h

INSERT INTO results (compound, experimental_value) VALUES
  ('CSCC[C@H](NC(=O)[C@@H]1Cc2ccccc2CN1C(=O)[C@@H](NC(=O)[C@H](CC1CCCCC1)NC(C)=O)C1CCN(C(=N)N)CC1)C(=O)N(CCOCCO)Cc1ccccc1 [Compound P102, Ac-Cha-Gpg-Tic-Met-N(Bn)CH2CH2OCH2CH2OH] (Ac-[Cha][Gly(1-amidinopiperidin-4-yl)][Tic]M-X2)', 110),
  ('CCCC[C@H](NC(=O)C1c2ccccc2CN1C(=O)[C@@H](NC(=O)[C@H](CC1CCCCC1)NC(C)=O)C1CCN(C(=N)N)CC1)C(=O)N1CC[C@H](c2ccccc2)[C@H]1C(=O)N[C@@H](CO)c1nc(C(=O)N(C)C)c(C(C)C)o1 (stereo partly drawn) [Compound P81-1] (Ac-[Cha][Gly(1-amidinopiperidin-4-yl)][ξDisc][Nle][Pro(3R-Ph)][X1]-NMe2)', 151),
  ('CCCC[C@H](NC(=O)C1c2ccccc2CN1C(=O)[C@@H](NC(=O)[C@H](CC1CCCCC1)NC(C)=O)C1CCN(C(=N)N)CC1)C(=O)N(C)Cc1ccccc1 (single isomer, unassigned) [Compound P76-1, Ac-Cha-Gpg-Disc-Nle-N(Me)Bn]', 93);

###

Reported IC50 is given for each of the following compounds.
study_system: LG2 (DR1: DRA1*0101 DRB1*0101) cells (Homo sapiens, UniProt P01903+P01911, A100R/D57E/F55L/F60I/F76Y/I96L/L162R/M171V/P40L/Q125E/R42F/V115G/Y59C)
Construct: MHC II Proteins Expressed on PRIESS and LG2 Cells; endogenous in cells; host or cells: LG2 cells
test_name: Competitive binding to MHC II proteins expressed on LG2 cells
Type: cell-based
condition_set: Cell binding IC50 (uM) LG2 (0101), LG2 (0101)
Square brackets hold non-standard residues; d marks the D form. Peptide text beside a SMILES is read from it. * marks the point of attachment. Gly(1-amidinopiperidin-4-yl) = N=C(N)N1CCC([C@H](N)C(=O)O)CC1; Pro(3R-Ph) = O=C(O)[C@H]1NCC[C@@H]1c1ccccc1; Tic = O=C(O)[C@@H]1Cc2ccccc2CN1; Cha = N[C@@H](CC1CCCCC1)C(=O)O; Nle = CCCC[C@H](N)C(=O)O; NHBn = c1ccc(CN*)cc1
measured_parameter: IC50 (µM)

INSERT INTO results (compound, measured_parameter, experimental_value) VALUES
  ('CSCC[C@H](NC(=O)[C@@H]1Cc2ccccc2CN1C(=O)[C@@H](NC(=O)[C@H](CC1CCCCC1)NC(C)=O)C1CCN(C(=N)N)CC1)C(N)=O [Compound P67, Ac-Cha-Gpg-Tic-Met-NH2] (Ac-[Cha][Gly(1-amidinopiperidin-4-yl)][Tic]M-NH2)', 'IC50', 4.5),
  ('CSCC[C@H](NC(=O)[C@@H]1Cc2ccccc2CN1C(=O)[C@H](CCCNC(=N)N)NC(=O)[C@H](CC1CCCCC1)NC(C)=O)C(=O)N1CC[C@H](c2ccccc2)[C@H]1C(N)=O [Compound P31, Ac-Cha-Arg-Tic-Met-βPhPro-NH2] (Ac-[Cha]R[Tic]M[Pro(3R-Ph)]-NH2)', 'IC50', 8.5),
  ('CCCC[C@H](NC(=O)[C@@H]1Cc2ccccc2CN1C(=O)[C@@H](NC(=O)[C@H](CC1CCCCC1)NC(C)=O)C1CCN(C(=N)N)CC1)C(=O)NCc1ccccc1 [Compound P68, Ac-Cha-Gpg-Tic-Nle-N(H)Bn] (Ac-[Cha][Gly(1-amidinopiperidin-4-yl)][Tic][Nle]-NHBn)', 'IC50', 7.2);

###

test_name: Stability of compounds in human blood plasma
Type: in vitro ADME
Protocol: The stability of the peptidomimetic compounds was determined in rat (Charles River Laboratories, Sulzfeld), mouse (Charles River Laboratories, Sulzfeld) and human (Bayerisches Rotes Kreuz, München) blood plasma (E. R. Garrett and M. R. Gardner, J Pharmaceutical Sciences 71 (1982) 14-25). Compound stock solutions were diluted into blood plasma to give a final compound concentration of 5 μM and the mixtures were incubated at 37° C. […]
Square brackets hold non-standard residues; d marks the D form. Peptide text beside a SMILES is read from it. * marks the point of attachment. Gly(1-amidinopiperidin-4-yl) = N=C(N)N1CCC([C@H](N)C(=O)O)CC1; Tetrahydroisoquinolin(2-yl) = c1ccc2c(c1)CCN(*)C2; Tic = O=C(O)[C@@H]1Cc2ccccc2CN1; Cha = N[C@@H](CC1CCCCC1)C(=O)O; Nle = CCCC[C@H](N)C(=O)O
Collected Stability (Arbitrary units) Human 6 h values appear next to each entry.
measured_parameter: Stability (Arbitrary units) Human 6 h

INSERT INTO assay_data (molecule, experimental_value) VALUES
  ('CCCC[C@H](NC(=O)C1c2ccccc2CN1C(=O)[C@@H](NC(=O)[C@H](CC1CCCCC1)NC(C)=O)C1CCN(C(=N)N)CC1)C(=O)N(C)Cc1ccccc1 (single isomer, unassigned) [Compound P78-1]', 93),
  ('CCCC[C@H](NC(=O)[C@@H]1Cc2ccccc2CN1C(=O)[C@@H](NC(=O)[C@H](CC1CCCCC1)NC(C)=O)C1CCN(C(=N)N)CC1)C(=O)N1CCc2ccccc2C1 [Compound P77] (Ac-[Cha][Gly(1-amidinopiperidin-4-yl)][Tic][Nle]-{Tetrahydroisoquinolin(2-yl)})', 111);

###

Tested on: T cell activation from 0404(DR14) chimeric MHCII-mice
test_name: In vivo inhibition of T cell activation by co-immunisation, DR14 mice immunised with OVA
Set-up: species or system mouse
condition_set: DR14 mice co-immunised with OVA plus compound; mean % inhibition from the control over 3 concentrations of antigen (6.7, 20 and 60 ug)
Numbered stars: 1 amine (or outer) side, 2 acyl side, 3 side chain; on linkers, the order of the positions; unused ones are H or OH. Square brackets hold non-standard residues; d marks the D form. Peptide text beside a SMILES is read from it. * marks the point of attachment. ξ: configuration not given here. Gly(1-amidinopiperidin-4-yl) = N=C(N)N1CCC([C@H](N)C(=O)O)CC1; X1 = CC(C)c1oc([C@H](CO)N[*:1])nc1C(=O)[*:2]; Pro(3R-Ph) = O=C(O)[C@H]1NCC[C@@H]1c1ccccc1; Tic = O=C(O)[C@@H]1Cc2ccccc2CN1; Cha = N[C@@H](CC1CCCCC1)C(=O)O; NHPhenethyl = c1ccc(CCN*)cc1; NMe(benzyl) = CN(Cc1ccccc1)*; ξDisc = O=C(O)C1NCc2ccccc21; Nle = CCCC[C@H](N)C(=O)O; NHBn = c1ccc(CN*)cc1; X3 = OCCOCCN*
measured_parameter: % Reduction of response to OVA (%)

INSERT INTO measurements (compound, experimental_value) VALUES
  ('CCCC[C@H](NC(=O)[C@@H]1Cc2ccccc2CN1C(=O)[C@@H](NC(=O)[C@H](CC1CCCCC1)NC(C)=O)C1CCN(C(=N)N)CC1)C(=O)NCCc1ccccc1 [Compound P69, Ac-Cha-Gpg-Tic-Nle-N(H)CH2CH2Ph] (Ac-[Cha][Gly(1-amidinopiperidin-4-yl)][Tic][Nle]-NHPhenethyl)', 65.3),
  ('CCCC[C@H](NC(=O)[C@@H]1Cc2ccccc2CN1C(=O)[C@H](CCCNC(=N)N)NC(=O)[C@H](CC1CCCCC1)NC(C)=O)C(=O)NCCc1ccccc1 [Compound P82, Ac-Cha-Arg-Tic-Nle-N(H)CH2CH2Ph] (Ac-[Cha]R[Tic][Nle]-NHPhenethyl)', 25),
  ('CCCC[C@H](NC(=O)[C@@H]1Cc2ccccc2CN1C(=O)[C@@H](NC(=O)[C@H](CC1CCCCC1)NC(C)=O)C1CCN(C(=N)N)CC1)C(=O)N1CC[C@H](c2ccccc2)[C@H]1C(=O)N[C@@H](CO)c1nc(C(=O)N(C)C)c(C(C)C)o1 [Compound P53] (Ac-[Cha][Gly(1-amidinopiperidin-4-yl)][Tic][Nle][Pro(3R-Ph)][X1]-NMe2)', 56.3),
  ('CSCC[C@H](NC(=O)[C@@H]1Cc2ccccc2CN1C(=O)[C@@H](NC(=O)[C@H](CC1CCCCC1)NC(C)=O)C1CCN(C(=N)N)CC1)C(=O)N1CC[C@H](c2ccccc2)[C@H]1C(=O)N[C@@H](CO)c1nc(C(=O)N(C)C)c(C(C)C)o1 [Compound P60] (Ac-[Cha][Gly(1-amidinopiperidin-4-yl)][Tic]M[Pro(3R-Ph)][X1]-NMe2)', 50.3),
  ('CCCC[C@H](NC(=O)[C@@H]1Cc2ccccc2CN1C(=O)[C@@H](NC(=O)[C@H](CC1CCCCC1)NC(C)=O)C1CCN(C(=N)N)CC1)C(=O)NCc1ccccc1 [Compound P68, Ac-Cha-Gpg-Tic-Nle-N(H)Bn] (Ac-[Cha][Gly(1-amidinopiperidin-4-yl)][Tic][Nle]-NHBn)', 95.3),
  ('CCCC[C@H](NC(=O)[C@@H]1Cc2ccccc2CN1C(=O)[C@@H](NC(=O)[C@H](CC1CCCCC1)NC(C)=O)C1CCN(C(=N)N)CC1)C(=O)NCCOCCO [Compound P70, Ac-Cha-Gpg-Tic-Nle-N(H)CH2CH2OCH2CH2OH] (Ac-[Cha][Gly(1-amidinopiperidin-4-yl)][Tic][Nle]-X3)', 56.1),
  ('CCCC[C@H](NC(=O)[C@@H]1Cc2ccccc2CN1C(=O)[C@H](CCCNC(=N)N)NC(=O)[C@H](CC1CCCCC1)NC(C)=O)C(=O)N(C)Cc1ccccc1 [Compound P71, Ac-Cha-Arg-Tic-Nle-N(Me)Bn] (Ac-[Cha]R[Tic][Nle]-{NMe(benzyl)})', 48.8),
  ('CSCC[C@H](NC(=O)C1c2ccccc2CN1C(=O)[C@@H](NC(=O)[C@H](CC1CCCCC1)NC(C)=O)C1CCN(C(=N)N)CC1)C(=O)N1CC[C@H](c2ccccc2)[C@H]1C(=O)N[C@@H](CO)c1nc(C(=O)N(C)C)c(C(C)C)o1 (stereo partly drawn) [Compound P41-1] (Ac-[Cha][Gly(1-amidinopiperidin-4-yl)][ξDisc]M[Pro(3R-Ph)][X1]-NMe2)', 50.1),
  ('CCCC[C@H](NC(=O)[C@@H]1Cc2ccccc2CN1C(=O)[C@@H](NC(=O)[C@H](CC1CCCCC1)NC(C)=O)C1CCN(C(=N)N)CC1)C(=O)N(C)Cc1ccccc1 [Compound P74, Ac-Cha-Gpg-Tic-Nle-N(Me)Bn] (Ac-[Cha][Gly(1-amidinopiperidin-4-yl)][Tic][Nle]-{NMe(benzyl)})', 42.5),
  ('CCCC[C@H](NC(=O)[C@@H]1Cc2ccccc2CN1C(=O)[C@H](CCCNC(=N)N)NC(=O)[C@H](CC1CCCCC1)NC(C)=O)C(=O)N1CC[C@H](c2ccccc2)[C@H]1C(=O)N[C@@H](CO)c1nc(C(=O)N(C)C)c(C(C)C)o1 [Compound P51] (Ac-[Cha]R[Tic][Nle][Pro(3R-Ph)][X1]-NMe2)', 43.1);
